MEASURED TARGET: MJ (MJ0796-G174W-G14C, single-Cys mutant based on Cys-less MJ0796; isolated nucleotide-binding domain) (Methanocaldococcus jannaschii, UniProt Q58206, C128I/C53G/G14C/G174W/K44A)
Sequence (Q58206 whole entry G14C/K44A/C53G/C128I/G174W, the tested form may be a part): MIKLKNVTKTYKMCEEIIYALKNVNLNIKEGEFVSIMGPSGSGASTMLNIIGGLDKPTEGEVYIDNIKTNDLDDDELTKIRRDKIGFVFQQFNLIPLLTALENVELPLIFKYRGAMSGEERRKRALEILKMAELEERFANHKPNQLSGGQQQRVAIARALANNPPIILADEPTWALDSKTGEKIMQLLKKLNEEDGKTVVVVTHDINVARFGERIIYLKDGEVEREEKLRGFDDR
EXPERIMENT NOTES: Trp174 fluorescence quenching
pKd: −log10 of the molar value.

SMILES REPR | pKd
Nc1ncnc2c1ncn2[C@@H]1O[C@H](COP(=O)(O)OP(=O)(O)OP(=O)(O)O)[C@@H](O)[C@H]1O | 4.15
